I'd appreciate it if you could supply log10(fluorescence lifetime) values for the items below.
- Assay summary: solvent given as SMILES
- Assay setup: in ClC(Cl)Cl
Please interpret these as log10 of fluorescence lifetime where fluorescence lifetime is in ns.

# input Given CN(CC(O)c1cccc(O)c1)c1ccc([N+](=O)[O-])c(C2CC(c3cccc4ccccc34)=NN2c2ccccc2)c1 (stereo not given) , state its recorded log10(fluorescence lifetime).
# output 0.45

# input Given "c1cc2ccc3cccc4c(-c5cc(-c6nccs6)nc(-c6nccs6)c5)cc(c1)c2c34" , state its recorded log10(fluorescence lifetime).
# output 0.38

# input Given "c1ccc(N2c3ccc4ccccc4c3-c3c4ccccc4nc[n+]3[B-]2(c2ccccc2)c2ccccc2)cc1" , state its recorded log10(fluorescence lifetime).
# output -0.31

# input Given "CCCCCCCCCCN1C(=O)c2cc(NCCCOCCO)c3c4c(cc(NCCCOCCO)c(c24)C1=O)C(=O)N(CCCCCCCCCC)C3=O" , state its recorded log10(fluorescence lifetime).
# output 0.99

# input Given "COc1cc(OC)c2cc(-c3ccccc3CC#N)c(=O)oc2c1" , state its recorded log10(fluorescence lifetime).
# output 0.45

# input Given COC(=O)C(Cc1ccc2oc(-c3ccc(N(C)C)cc3)nc2c1)NC(=O)OC(C)(C)C (stereo not given) , state its recorded log10(fluorescence lifetime).
# output -0.10

# input Given Cc1c2oc3c(C)c(N)cc(C(=O)NC4OC(=O)C(C(C)C)N(C)C(=O)CN(C)C(=O)C5CCCN5C(=O)C(C(C)C)NC4=O)c3nc-2c(C(=O)NC2OC(=O)C(C(C)C)N(C)C(=O)CN(C)C(=O)C3CCCN3C(=O)C(C(C)C)NC2=O)c(N)c1=O (stereo not given) , state its recorded log10(fluorescence lifetime).
# output 0.01

# input Given "CN(C)c1ccc(-c2ccc(-c3nc(C#N)c(C#N)n3C)cc2)cc1" , state its recorded log10(fluorescence lifetime).
# output 0.30

# input Given "N#Cc1coc2ccccc2c1=O" , state its recorded log10(fluorescence lifetime).
# output 0.40

# input Given "c1csc(-c2ccc(-c3cccs3)c3nsnc23)c1" , state its recorded log10(fluorescence lifetime).
# output 1.01

# input Given "CC1=CC(C)=[N+]2C1=C(c1ccc(I)cc1)c1c(C)cc(C)n1[B-]2(F)F" , state its recorded log10(fluorescence lifetime).
# output 0.49

# input Given "CCOC(=O)c1ccccc1-c1c2ccc(=[N+](CC)CC)cc-2oc2c1c(=O)oc1c3c4c(cc12)CCCN4CCC3" , state its recorded log10(fluorescence lifetime).
# output 0.54

# input Given "COc1cc(N(c2ccccc2)c2ccccc2)ccc1C=C(C#N)C#N" , state its recorded log10(fluorescence lifetime).
# output -1.00

# input Given "CCOC(=O)c1ccccc1-c1c2ccc(=[N+](CC)CC)cc-2oc2c1c(=O)oc1cc(N(CC)CC)ccc12" , state its recorded log10(fluorescence lifetime).
# output 0.63

# input Given "Cc1cc(=O)oc2cc3c4ccc(C(C)(C)C)cc4c4cc(C(C)(C)C)ccc4c3cc12" , state its recorded log10(fluorescence lifetime).
# output 0.11

# input Given "COc1ccc(-c2cc(-c3ccc(C)cc3)nc3c(C#N)c(N4CCCC4)nc(N)c23)cc1" , state its recorded log10(fluorescence lifetime).
# output 1.12

# input Given "CSc1nc(-c2ccc(-n3c4ccccc4c4ccccc43)cc2)cc(-c2ccc(-n3c4ccccc4c4ccccc43)cc2)n1" , state its recorded log10(fluorescence lifetime).
# output 0.51

# input Given "F[B-]1(F)OC(c2ccc(Br)cc2)=Cc2ccc3ccccc3[n+]21" , state its recorded log10(fluorescence lifetime).
# output 0.08

# input Given "CCCCCCCCn1c(=O)c2cc3cc4cc5c(=O)n(CCCCCCCC)c(=O)c5cc4c(C#Cc4ccc(N(c5ccccc5)c5ccccc5)cc4)c3cc2c1=O" , state its recorded log10(fluorescence lifetime).
# output 0.62

# input Given "CC(=O)OCCOCCN1C(=O)c2cc(NCCOCCO)c3c4c(cc(NCCOCCO)c(c24)C1=O)C(=O)N(CCOCCOC(C)=O)C3=O" , state its recorded log10(fluorescence lifetime).
# output 0.98

# input Given "CCCCCCN1C(=O)c2cccc3cc(/N=C\c4ccc5c(c4)c4ccccc4n5CC)cc(c23)C1=O" , state its recorded log10(fluorescence lifetime).
# output 0.95

# input Given "F[B-]1(F)OC(c2ccc(C(F)(F)F)cc2)=Cc2ccc3ccccc3[n+]21" , state its recorded log10(fluorescence lifetime).
# output -0.04

# input Given "c1ccc2cc3cc(-c4cc(-c5nccs5)nc(-c5nccs5)c4)ccc3cc2c1" , state its recorded log10(fluorescence lifetime).
# output 0.63

# input Given "F[B-]1(F)OC(c2ccc(C(F)(F)F)cc2)=Cc2c3ccccc3cc[n+]21" , state its recorded log10(fluorescence lifetime).
# output -0.85

# input Given "O=Cc1ccc(C#CC(C#Cc2ccc(C=O)o2)=Cc2ccc(C=C(C#Cc3ccc(C=O)o3)C#Cc3ccc(C=O)o3)s2)o1" , state its recorded log10(fluorescence lifetime).
# output -0.40

# input Given "Cc1cccc(C2=Cc3ccc4ccccc4[n+]3[B-](F)(F)O2)c1" , state its recorded log10(fluorescence lifetime).
# output 0.20

# input Given "CN1C(=CC2=C([O-])C(=CC3=[N+](C)c4ccccc4C3(C)C)C2=O)C(C)(C)c2cc(Cl)ccc21" , state its recorded log10(fluorescence lifetime).
# output 0.02

# input Given "CCCCCCN1C(=O)c2cccc3c(-c4cc5ccccc5s4)ccc(c23)C1=O" , state its recorded log10(fluorescence lifetime).
# output -0.07

# input Given "CCCCCCCCCCCCSc1cc2c3c(ccc4c5c(SCCCCCCCCCCCC)cc6c7c(ccc(c1c34)c75)C(=O)N(C1CCCCC1)C6=O)C(=O)N(C1CCCCC1)C2=O" , state its recorded log10(fluorescence lifetime).
# output 0.93

# input Given "N#CC(C#N)=C(/C=C/c1cc2c3c(c1)CCCN3CCC2)c1ccc2c3c(cccc13)CC2" , state its recorded log10(fluorescence lifetime).
# output 0.82

# input Given "N#CC(C#N)=C(/C=C/c1ccc(N(c2ccccc2)c2ccccc2)cc1)c1ccc2c3c(cccc13)CC2" , state its recorded log10(fluorescence lifetime).
# output 0.82

# input Given "CN(C)c1ccc(/C=C2\CC/C(=C\c3ccc(C#N)cc3)C2=O)cc1" , state its recorded log10(fluorescence lifetime).
# output 0.32

# input Given "COc1ccc(C#Cc2ccc(C#N)cc2)cc1" , state its recorded log10(fluorescence lifetime).
# output -0.42

# input Given "COc1ccc2cc(C#Cc3ccc([N+](=O)[O-])cc3)ccc2c1" , state its recorded log10(fluorescence lifetime).
# output -0.11

# input Given "COc1ccc(C2=Cc3ccc4ccccc4[n+]3[B-](F)(F)O2)cc1" , state its recorded log10(fluorescence lifetime).
# output 0.36
